tested on: H1975 cells; test: Antiproliferative activity, H1975; format: cell-based; settings: Homo sapiens, NCI-H1975
MEASURED_QUANTITY: IC50 (µM)
Kindly provide the numeric value in µM only, without the unit symbol.

Tested system H1975 cells; IC50 recorded for Cc1nnc2c(Oc3ccc(NC(=O)c4cnn(-c5ccc(Cl)cc5)c4C(F)(F)F)cc3F)nccn12 [17l] was 15.3

Summary line: CNC(=O)c1cc(Oc2ccc(NC(=O)Nc3ccc(Cl)c(C(F)(F)F)c3)cc2)ccn1 [Sorafenib, sorafenib, reference compound] , H1975 cells, reported IC50 = 10.2

* * *

Each entry below carries its measured pIC50, system: UniProtKB P08581.
Sequence (P08581 25-1390): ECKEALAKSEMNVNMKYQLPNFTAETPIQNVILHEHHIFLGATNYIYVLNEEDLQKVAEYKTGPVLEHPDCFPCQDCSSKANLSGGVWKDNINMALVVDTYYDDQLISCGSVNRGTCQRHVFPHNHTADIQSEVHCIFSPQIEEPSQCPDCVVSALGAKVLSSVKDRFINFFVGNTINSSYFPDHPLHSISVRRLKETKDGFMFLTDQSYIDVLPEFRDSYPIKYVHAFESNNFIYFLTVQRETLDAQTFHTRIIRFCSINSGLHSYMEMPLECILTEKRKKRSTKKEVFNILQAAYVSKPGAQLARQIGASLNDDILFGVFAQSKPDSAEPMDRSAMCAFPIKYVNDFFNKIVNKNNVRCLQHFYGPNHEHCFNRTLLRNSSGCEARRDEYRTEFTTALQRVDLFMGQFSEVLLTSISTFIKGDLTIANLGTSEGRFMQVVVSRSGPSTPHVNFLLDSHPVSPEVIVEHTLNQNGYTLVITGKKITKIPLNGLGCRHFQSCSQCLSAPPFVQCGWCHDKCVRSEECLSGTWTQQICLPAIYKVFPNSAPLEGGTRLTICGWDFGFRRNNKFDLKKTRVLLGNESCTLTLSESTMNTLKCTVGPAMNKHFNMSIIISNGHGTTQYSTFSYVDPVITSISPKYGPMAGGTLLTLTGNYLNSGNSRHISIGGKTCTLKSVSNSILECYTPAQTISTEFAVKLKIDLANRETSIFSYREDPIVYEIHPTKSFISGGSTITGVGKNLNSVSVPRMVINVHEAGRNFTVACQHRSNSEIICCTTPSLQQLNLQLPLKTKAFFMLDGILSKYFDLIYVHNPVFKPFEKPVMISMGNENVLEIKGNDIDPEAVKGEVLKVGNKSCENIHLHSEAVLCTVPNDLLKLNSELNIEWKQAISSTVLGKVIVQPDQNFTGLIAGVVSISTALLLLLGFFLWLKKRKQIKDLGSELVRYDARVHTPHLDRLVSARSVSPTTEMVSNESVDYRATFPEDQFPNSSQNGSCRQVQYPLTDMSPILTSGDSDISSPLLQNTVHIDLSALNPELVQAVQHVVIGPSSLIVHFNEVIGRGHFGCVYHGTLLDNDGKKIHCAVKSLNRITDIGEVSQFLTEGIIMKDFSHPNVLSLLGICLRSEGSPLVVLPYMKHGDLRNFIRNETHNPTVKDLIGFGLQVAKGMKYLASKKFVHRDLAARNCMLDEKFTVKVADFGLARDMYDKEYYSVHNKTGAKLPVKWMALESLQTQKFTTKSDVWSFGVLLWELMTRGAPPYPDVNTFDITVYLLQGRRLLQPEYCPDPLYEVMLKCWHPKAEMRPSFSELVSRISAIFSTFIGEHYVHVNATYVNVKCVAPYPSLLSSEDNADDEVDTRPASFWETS
Scale: negative log10 of molar concentration, which is what pIC50 denotes.

COMPOUND | pIC50
Cc1nnc2c(Oc3ccc(NC(=O)c4cc(-c5cccs5)no4)cc3F)nccn12 | 6.19
Cc1nc(-c2ccccn2)sc1C(=O)Nc1ccc(Oc2nccn3cnnc23)cc1 [16b] | 6.42
Cc1nnc2c(Oc3ccc(NC(=O)c4cc(-c5cccs5)n[nH]4)cc3)nccn12 [17f] | 6.52
O=C(Nc1ccc(Oc2nccn3cnnc23)c(F)c1)c1cnn(-c2ccc(Cl)cc2)c1C(F)(F)F | 6.42
Cc1nc(-c2ccccc2)sc1C(=O)Nc1ccc(Oc2nccn3cnnc23)cc1 [16a] | 6.10
Cc1nc(-c2ccccn2)sc1C(=O)Nc1ccc(Oc2nccn3c(C)nnc23)cc1 [17b] | 6.61
Cc1nc(-c2ccccc2)sc1C(=O)Nc1ccc(Oc2nccn3cnnc23)c(F)c1 | 6.18
Cc1nc(-c2ccncc2)sc1C(=O)Nc1ccc(Oc2nccn3c(C)nnc23)cc1 [17c] | 6.27

Sample O=C(Nc1ccc(Oc2nccn3cnnc23)cc1)c1cnn(-c2ccc(Cl)cc2)c1C(F)(F)F [16d] ; pIC50 observed: 6.14

Sample Cc1nc(-c2ccncc2)sc1C(=O)Nc1ccc(Oc2nccn3cnnc23)c(F)c1 [16j] ; pIC50 observed: 6.96

pIC50 measured on Cc1nc(-c2ccccc2)sc1C(=O)Nc1ccc(Oc2nccn3c(C)nnc23)cc1 [17a] = 7.26

"Cc1nc(-c2ccccn2)sc1C(=O)Nc1ccc(Oc2nccn3c(C)nnc23)c(F)c1" has a reported pIC50 of 6.81

Where these numbers come from: paper PMC9019572
